Source listed as the Immune Epitope Database (IEDB).

Target: HLA-B*46:01
Experiment: IEDB peptide-MHC binding, purified MHC/direct/fluorescence; filed as Kd, often an IC50 or EC50 that approximates it; bounds were set here for any values at or beyond the usual limits of such assays
Details: source organism: Giardia lamblia ATCC 50803
pKd: −log10 of the molar value.
recorded metric: pKd

query: Query: pKd; subject: `VAAKGAPAL`
result: ≤ 4.70

====

Target: HLA-A*31:01
Assay: IEDB peptide-MHC binding, purified MHC/competitive/radioactivity; filed as Kd, often an IC50 or EC50 that approximates it; bounds were set here for any values at or beyond the usual limits of such assays
Settings: source organism: Mammarenavirus guanaritoense
recorded metric: pKd
In plain terms, pKd is the concentration in mol/L turned into minus its base-10 logarithm.

query: Query for HLA-A*31:01: what pKd does the record show for `FESLFKCLSH` ?
result: 6.22

====

Target: HLA-B*15:01
Assay: IEDB peptide-MHC binding, purified MHC/direct/fluorescence; filed as Kd, often an IC50 or EC50 that approximates it; bounds were set here for any values at or beyond the usual limits of such assays
Details: source organism: Mammarenavirus juninense
recorded metric: Kd (nM)
Express the result in nM but write the number alone.

query: Query for HLA-B*15:01: what Kd does the record show for `KLIADSIDF` ?
result: 67.5

====

Target: HLA-A*32:01
Assay: IEDB peptide-MHC binding, purified MHC/competitive/radioactivity; filed as Kd, often an IC50 or EC50 that approximates it; bounds were set here for any values at or beyond the usual limits of such assays
Conditions: source organism: Dengue virus 2 Jamaica/1409/1983
recorded metric: pKd
In plain terms, pKd is the concentration in mol/L turned into minus its base-10 logarithm.

RVWIQENPW : 7.65

Kindly consider the entry below.
query: Query: pKd; subject: `GVFPVSIPI`
result: 7.35

====

Molecular target: HLA-A*33:01
Test: IEDB peptide-MHC binding, purified MHC/competitive/radioactivity; filed as Kd, often an IC50 or EC50 that approximates it; bounds were set here for any values at or beyond the usual limits of such assays
Conditions: source organism: SARS coronavirus Tor2
pKd: −log10 of the molar value.
Use MET when the recorded pKd is no lower than 6; use NOT MET when it is lower.

// below: answered sequences
AAYFVGYLK : NOT MET
SVVNARLRAK : NOT MET
SVSPKLFIR : NOT MET
STCMMCYKR : MET
TVCTVCGMWK : MET
TTFDAEYCR : MET

query: Threshold query (pKd >= 6) on `MSAPPAEYK`
result: NOT MET

query: // repeat for `AISDYDYYR` and report
result: MET

query: // repeat for `STRHPSKLR` and report
result: MET

query: // repeat for `GLALYYPSAR` and report
result: NOT MET

query: // repeat for `PVVAAIITR` and report
result: NOT MET

query: // repeat for `CVFAYVGCY` and report
result: NOT MET

query: // repeat for `TQYNRYLALY` and report
result: NOT MET

query: // repeat for `AVMYMGTLSY` and report
result: NOT MET

query: // repeat for `LSAGVEFLK` and report
result: NOT MET

query: // repeat for `TVVQRCASNK` and report
result: NOT MET

query: // repeat for `SSIVRQLFK` and report
result: NOT MET

query: // repeat for `VLAAECTIFK` and report
result: MET
